# Tested on: Saccharomyces cerevisiae
# ASSAY: Antifungal activity against DNA-damage repair genes deficient Saccharomyces cerevisiae RS 321 after 48 hrs by mechanism based bioassay
# Assay type: functional
IC12 for assorted compounds
ENDPOINT NAME: IC12 (µg/mL)

INSERT INTO assay_data (compound, result_modifier, observed) VALUES
  ('CC(C)=C1C(=O)C[C@]2(C)C/C=C(\C)CC[C@@H]3O[C@@]3(C)CC[C@@H]12', '=', 1500),
  ('C=C(C)C1C/C=C(\C)CC[C@H](O)[C@@]2(C)CCC=C(CC1)C(=O)O2 (stereo partly specified)', '>', 3000),
  ('CC(=O)O[C@H]1C/C(C)=C/C[C@@]2(C)CC(=O)C(=C(C)C)[C@@H]2CC[C@]2(C)O[C@@H]12', '>', 3000),
  ('C/C1=C\C[C@@]2(C)C(=O)C=C(C(C)C)[C@@H]2CC[C@]2(C)O[C@H]2CC1', '=', 2600),
  ('CC(=O)OCC(COC(C)=O)=C1C=C[C@]2(C)C/C=C(\C)CC[C@@H]3O[C@@]3(C)CC[C@@H]12', '>', 3000),
  ('CC(=O)OC/C1=C\C[C@@]2(C)CC(=O)C(=C(C)C)[C@@H]2CC[C@]2(C)O[C@H]2CC1', '=', 1800);
